experiment: qHTS Assay for Lipid Storage Modulators in Drosophila S3 Cells; settings: BODIPY lipid droplet fluorescence, 18-24 h, cells fed with added oleic acid; measured here: cell count max response;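 note: cells counted by Cell Tracker Red CMTPX staining in the red channel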
In all, about 320,000 compounds went through this assay and about 2,100 (0.66%) were called active. Not shown: some 53% with an inconclusive outcome. Many of the other results were omitted from the sample, so actives are more common in it than they were.
REPORTED_ENDPOINT: cell number change (%)
Give your result in % as a bare value.

State the recorded cell number change for this entry: "Cc1cc(OCCCC(=O)Nc2cccc(-n3cnnn3)c2)ccc1Cl" 3.23

State the recorded cell number change for this entry: "N#Cc1nc(Cc2ccccc2)oc1NCc1ccccc1" -21

State the recorded cell number change for this entry: "CO/N=C/CC(=O)Nc1ccc(F)cc1F" 16.8

State the recorded cell number change for this entry: "N#Cc1ncc(Cc2ccccc2)nc1C#N" -22.9

State the recorded cell number change for this entry: "COC(=O)c1ccc2c(c1)C(C)(C)C(/C=C/c1ccc(O)cc1)=[N+]2C" 1

State the recorded cell number change for this entry: "COCc1c(C(=O)N/N=C/c2cccc3ccccc23)nnn1-c1nonc1N" 13.5

State the recorded cell number change for this entry: "COc1cc(NC(=O)c2ccccc2Cl)ccc1NC(=O)c1cccs1" 16.4

State the recorded cell number change for this entry: Cc1cccc(C2c3[nH]c4ccccc4c3CCN2Cc2cccn2-c2ncccn2)c1 (stereo not given) -27.2

State the recorded cell number change for this entry: CC(C)CC(c1nnnn1C1CCCC1)N1CCN(C(=O)c2ccco2)CC1 (stereo not given) -2.29

State the recorded cell number change for this entry: Fc1ccc(C2c3[nH]c4ccccc4c3CCN2Cc2cccn2-c2ncccn2)cc1 (stereo not given) 1.18

State the recorded cell number change for this entry: Cc1cccc2cc(CN(CC3CCCO3)S(=O)(=O)c3ccccc3)c3nnnn3c12 (stereo not given) 3.31

State the recorded cell number change for this entry: "Cc1ccc(-c2c(C(=O)N/N=C/c3cccs3)nnn2-c2nonc2N)cc1" -27.4

State the recorded cell number change for this entry: CC1CCCN(C(=O)CNC(=O)c2sc3ccccc3c2Cl)C1 (stereo not given) 11.4

State the recorded cell number change for this entry: "O=[N+]([O-])c1cnc2ccccc2c1" 16.2

State the recorded cell number change for this entry: "Cc1[nH]c(C)c(S(=O)(=O)N(Cc2ccccc2)C(C)(C)C)c1C(=O)N1CCCC1" -27.6

State the recorded cell number change for this entry: "CCN(c1ccccc1)S(=O)(=O)c1c[nH]c2ccc([N+](=O)[O-])cc12" -8.56

State the recorded cell number change for this entry: N#Cc1ccc(OCC(=O)N/N=C/C2CC=CCC2)cc1 (stereo not given) 18.8

State the recorded cell number change for this entry: "O=C(N/C(=C/c1ccccc1)C(=O)N1CCCCCC1)c1ccccc1" 10.3

State the recorded cell number change for this entry: "N#Cc1nc(Cc2ccccc2)oc1N1CCCC1" -9.44

State the recorded cell number change for this entry: "O=C(CNC(=O)c1cccc(-n2cnnn2)c1)Nc1ccc(F)c(F)c1" 0.376

State the recorded cell number change for this entry: CC1CC(C)CN(C(=O)CNC(=O)c2sc3ccccc3c2Cl)C1 (stereo not given) -1.35

State the recorded cell number change for this entry: CC1=C(C(=O)OCC2CCCO2)C(c2ccc(Cl)c(Cl)c2)NC(=O)N1 (stereo not given) 6.97

State the recorded cell number change for this entry: OCCC1CN(Cc2cc3c(cc2Cl)OCO3)CCN1C1CCCCC1 (stereo not given) 2.14

State the recorded cell number change for this entry: "COC(=O)c1ccc(/C=C/C(=O)O)cc1" 2.73

State the recorded cell number change for this entry: "COc1ccc(OCC(=O)Nc2ccc(NC(=O)c3cccs3)c(OC)c2)cc1" 10.8

State the recorded cell number change for this entry: "CCN(c1ccccc1)S(=O)(=O)c1ccc2[nH]c(=O)[nH]c2c1" 8.44

State the recorded cell number change for this entry: "Fc1cccc(COc2ccccc2CNc2ccccc2)c1" -10

State the recorded cell number change for this entry: "O=C(Nc1cccc(-n2cnnn2)c1)c1ccco1" -16.6

State the recorded cell number change for this entry: "Cc1ccc2c(c1)N(S(=O)(=O)c1ccc3c(c1)NC(=O)CC(=O)N3)CCO2" 15

State the recorded cell number change for this entry: CCc1nnc(NC(=O)C2CC(=O)N(C3CCCC3)C2)s1 (stereo not given) 8.4

State the recorded cell number change for this entry: COc1ccc(OCC(=O)N/N=C/C2CC=CCC2)cc1 (stereo not given) -11.3

State the recorded cell number change for this entry: O=C(O)C1CCCCC1C(=O)NCCc1cccc(Cl)c1 (stereo not given) -1.17

State the recorded cell number change for this entry: "COc1ccc(NC(=O)COc2cccc(-n3cnnn3)c2)cc1" -3.85

State the recorded cell number change for this entry: "COc1cc(NC(=O)c2ccc(Br)cc2)c(OC)cc1NC(=O)c1ccccc1" -19.9

State the recorded cell number change for this entry: "CC(=O)Nc1ccc(NC(=O)CNC(=O)c2sc3ccccc3c2Cl)cc1" 0.461

State the recorded cell number change for this entry: CC(=O)C(Sc1nnnn1-c1ccc(O)cc1)c1ccccc1 (stereo not given) 5.67

State the recorded cell number change for this entry: "O=C(Nc1cccc(-n2cnnn2)c1)c1cccc(Cl)c1" -16

State the recorded cell number change for this entry: "O=C(Nc1cccc(-n2cnnn2)c1)c1ccoc1COc1ccc(Cl)cc1" -18.1

State the recorded cell number change for this entry: "O=C(CSc1ccc(-c2ccccn2)nn1)NCc1ccccc1" 3.17

State the recorded cell number change for this entry: "CCOc1ccc(/C=C2\SC(=S)N(CCC(=O)Nc3ccc(C(=O)O)cc3)C2=O)cc1" 8.29

State the recorded cell number change for this entry: "O=C(O)/C=C/C(=O)NCc1ccccn1" -7.29

State the recorded cell number change for this entry: "COc1cc(NC(=O)c2cccnc2)c(OC)cc1NC(=O)c1ccc(Br)cc1" 15.3

State the recorded cell number change for this entry: CCOC(=O)C1CCN(C(c2cccc(F)c2)c2sc3nc(C)nn3c2O)CC1 (stereo not given) 9.03

State the recorded cell number change for this entry: "COc1ccccc1NC(=O)c1ccc2snnc2c1" 5.09

State the recorded cell number change for this entry: "CCN(c1ccccc1)S(=O)(=O)c1cc([N+](=O)[O-])ccc1N" 7.82

Each recorded value in this set is attributed to PubChem BioAssay AID2685.
